Catalogue of proteins with associated Km
Substrate: CCCCC/C=C\C/C=C\C=C\[C@@H](C/C=C\CCCC(=O)O)OO
method_notes: purified protein
Type: biochemical, Capnella imbricata
condition_label: 50 mM Tris pH 8.0, 100 mM NaCl, 1 mM CaCl2, 20 °C, 5–50 μM substrate
Report the figure in µM without appending any unit label.

C. imbricata cHPL (catalase-related hydroperoxide lyase domain) (Capnella imbricata; F150L) (protein, N-terminal cHPL domain of the HPL-LOX fusion protein, without the LOX domain; cHPL-His4 in pET11a; E. coli BL21(DE3), Ni-NTA; heme protein; monomer 45 kDa plus oligomers 440-670 kDa) MVWKNFGYEIFAEKFGKDELEKRIKDEHTAPPESPLFGSLKLKMKKEKFKILFTLRTTMEGFRRPTHTVATGGLGEITIVSDPKFPEHEFYRAGRKFPARLRHANLKLLDDAGSDARSFSIKFADNDSESPMDIVMNTGEANIFWNTSSLEDFVSSSAGESAAKEYVYKNPYYYYYSIEALRRAPETFAHLYYYSQLTMHFKAKDGKVRYCRYRAIPGDADIKEEEESGRLTEEEQRNVWIRSRHQNEKRPDDYLRKEYVERLGKGPVNYRLQIQIHEASPDDTATIFHAGIMWNKETHPWFDLAKVSIKTPLSPDVLERTSFNIVNQPESLGLLEAKSPEDYNSIGQIRVAVYKWIQHLRKLKVGSLVPTGQN
1.8
C. imbricata cHPL (catalase-related hydroperoxide lyase domain) (Capnella imbricata; I357V) (protein, N-terminal cHPL domain of the HPL-LOX fusion protein, without the LOX domain; cHPL-His4 in pET11a; E. coli BL21(DE3), Ni-NTA; heme protein; monomer 45 kDa plus oligomers 440-670 kDa) MVWKNFGYEIFAEKFGKDELEKRIKDEHTAPPESPLFGSLKLKMKKEKFKILFTLRTTMEGFRRPTHTVATGGLGEITIVSDPKFPEHEFYRAGRKFPARLRHANLKLLDDAGSDARSFSIKFADNDSESPMDIVMNTGEANIFWNTSSFEDFVSSSAGESAAKEYVYKNPYYYYYSIEALRRAPETFAHLYYYSQLTMHFKAKDGKVRYCRYRAIPGDADIKEEEESGRLTEEEQRNVWIRSRHQNEKRPDDYLRKEYVERLGKGPVNYRLQIQIHEASPDDTATIFHAGIMWNKETHPWFDLAKVSIKTPLSPDVLERTSFNIVNQPESLGLLEAKSPEDYNSIGQIRVAVYKWVQHLRKLKVGSLVPTGQN
5.0

Look up Km: C. imbricata cAOS (cAOS-H4 domain) (Capnella imbricata) (protein, N-terminal cAOS domain of the AOS-LOX fusion protein, without the LOX domain; cAOS-H4 (His4 tag) in pET11a; E. coli BL21(DE3), Ni-NTA; heme protein; monomer) MTWKNFGFDIFAERFGKDKLEKRIKDERTPPPDSPVFGGLTLRMKIEKFKTLFTLGTTLKGFRRATHTVGTGGIGEVTVVDDPKFPEHEFFKAGRKLPVRLRHANLKYPDDAGADARSFSIKFSDNDSESPLDIVMNTGEANIFWHTSSLEDFVPVKEGDSAKEYVYKNPYYYYNLVEALRRAPNTFAHLYYYSQVTMHFKAKDGKERYCRYRAIPGDVDIKEEEESGRLTEEEQRNIWTFSRYETEKRPDDYLRKEYVERLKKGPVNYRLQIQIHDVSPNDTATIFHAGILWDKETHPWFDLAKVSITTPMSPDVLERTNFNIVNQPKSLGLLDAKSPEDYNSIGQIRVSVYNWVQHLRKLKLGSLIPAGQN 46.6
